The values you see were collected from PubChem BioAssay AID493098.

List of inhibition values.
biological target: C-C chemokine receptor type 6 (Homo sapiens) (UniProt P51684); test: blockers of CCL20-driven beta-arrestin recruitment to CCR6 – cell-based, CHO-K1, luminescence, uHTS, primary screen (AID 493098); conditions: CHO-K1 CCR6 PathHunter beta-arrestin, CCL20-stimulated, at 20 µM, active compounds read high;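 further: cells stimulated with CCL20 at 14 nM final; plate controls were DMSO with CCL20 for no effect and DMSO without agonist for full effect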
Sequence (P51684 whole entry, looked up): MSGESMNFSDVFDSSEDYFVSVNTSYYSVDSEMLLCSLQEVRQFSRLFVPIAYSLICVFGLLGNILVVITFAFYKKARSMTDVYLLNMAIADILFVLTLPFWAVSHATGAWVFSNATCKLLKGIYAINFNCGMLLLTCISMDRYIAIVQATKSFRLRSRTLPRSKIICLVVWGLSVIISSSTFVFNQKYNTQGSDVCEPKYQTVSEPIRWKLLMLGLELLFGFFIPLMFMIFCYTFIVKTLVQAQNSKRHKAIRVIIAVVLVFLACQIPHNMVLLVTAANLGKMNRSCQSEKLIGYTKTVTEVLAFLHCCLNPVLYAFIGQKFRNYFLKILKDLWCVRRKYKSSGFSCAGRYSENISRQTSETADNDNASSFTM
Screen size: about 340,000 compounds; about 1,700 (0.5%) were called active. The list comes from a sample in which actives are over-represented; it also holds close analogues and randomly drawn compounds.
The response must be a number in % with no trailing unit.

Solved cases below.
compound	inhibition, %
CCCOC(=O)Cc1c(O)c2ccccc2[nH]c1=O	-17.8
O=C(Nc1ccccc1Cl)/C(Cl)=C(\Cl)S(=O)c1ccccc1 (stereo not drawn)	95.1
Cc1cc(C)nc(S/C=C/C(=O)c2ccccc2)n1	54.2
N#C/C(=C\C1=C(N2CCOCC2)C(=C\c2ccccc2)/CC1)C(=O)Nc1ccccc1F	37.8
Cc1ccc(S(=O)(=O)N2CCN(C)CC2)cc1	13.6

Input line: I'd like to know its inhibition. The compound in question is Cc1cc2oc(=O)cc(CN(C)Cc3ccc(OC(F)F)cc3)c2cc1Cl
Output line: 21.5

Input line: Try the compound COc1ccc(C(=O)NC(=S)NNC(=O)CCc2ccccc2)cc1
Output line: 63.5

Input line: Try the compound Cc1c(NC(=O)CSc2cccc3cccnc23)c(=O)n(-c2ccccc2)n1C
Output line: 59.7

---

biological target: C-C chemokine receptor type 6 (Homo sapiens) (UniProt P51684); experiment: blockers of CCL20-driven beta-arrestin recruitment to CCR6 – cell-based, CHO-K1, luminescence, uHTS, primary screen (AID 493098); conditions: CHO-K1 CCR6 PathHunter beta-arrestin, CCL20-stimulated, at 20 µM
About 1,700 (0.5%) of roughly 340,000 compounds were called active.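 Rule for the calls: active = compounds whose inhibition of the agonist-driven luminescence signal at 20 µM reaches about 50% (limit read from the data); inactive = the rest.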 The list comes from a sample in which actives are over-represented; it also holds close analogues and randomly drawn compounds.
Choose one outcome from this list and give only that: active, inactive

Below, 8 molecules whose answers are already recorded.
molecule	answer-label
CC(OC(=O)CN1C(=O)c2ccccc2C1=O)C(=O)c1ccccc1 (centres undefined)	inactive
COc1cccc(CN2CCN(Cc3ccc4cccc(F)c4n3)CC2CCO)c1 (centres undefined)	inactive
COC(=O)c1ccc(NCC(=O)c2ccccc2)cc1	active
CCOC(=O)CN1C(=O)C(=O)c2cc(C)ccc21	inactive
CCOc1ccc(S(=O)(=O)N2CCCCC2)cc1NC(=O)CN1CCCC1c1cccs1 (centres undefined)	inactive
COc1ccc(NC(=O)CCCC(=O)c2ccccc2)cc1	inactive
S=c1[nH]nc(/C=C/c2ccccc2)o1	inactive
COc1ccc2c(c1)[C@H]1[C@H](CO2)[C@H](c2ccccc2)[C@]2(C)C(=O)Nc3cc(F)c(F)cc3C(=O)N12	inactive

Kindly review the next molecule as well.
Input line: I'd appreciate the recorded outcome for Cc1ccc(C(=O)CNc2ccc(F)cc2)cc1 from this test.
Output line: active

---

target: C-C chemokine receptor type 6 (Homo sapiens) (UniProt P51684); assay: blockers of CCL20-driven beta-arrestin recruitment to CCR6 – cell-based, CHO-K1, luminescence, uHTS, primary screen (AID 493098); settings: CHO-K1 CCR6 PathHunter beta-arrestin, CCL20-stimulated, at 20 µM
Out of some 340,000 compounds screened, about 1,700 (0.5%) were called active.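 Rule for the calls: active = compounds whose inhibition of the agonist-driven luminescence signal at 20 µM reaches about 50% (limit read from the data); inactive = the rest.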 Many of the other results were omitted from the sample, so actives are more common in it than they were.
Choose one outcome from this list and give only that: T (active), F (inactive)

Below, 2 molecules whose answers are already recorded.
molecule	answer-label
COc1ccc(CS(=O)/C(Cl)=C(/Cl)C(=O)Nc2ccc(OC)nc2)cc1 (stereo unspecified)	T
Cc1nc2cc(C(F)(F)F)ccc2n1CCNc1nc(-c2cc(Cl)c(N)c(Cl)c2)cs1	F

Input line: I'd appreciate the recorded outcome for Cc1nc2nc(C)c(NS(=O)(=O)c3ccc(C(C)(C)C)cc3)c(=O)n2[nH]1 from this test.
Output line: F

Input line: Try the molecule CC(=O)c1sc(N/N=C/c2ccc(C(C)C)cc2)nc1C
Output line: F

Input line: Try the molecule COCCn1c(SCC(=O)Nc2nc(C)cs2)nnc1C(C)C
Output line: F

Input line: Try the molecule O=[N+]([O-])c1ccc(C=NN=Cc2ccc([N+](=O)[O-])cc2)cc1
Output line: F

Input line: Try the molecule Cc1nc(C)c(-c2nnc(-c3cccc(S(=O)(=O)N(C)C)c3)o2)cc1C(=O)NN
Output line: F

Input line: Try the molecule CC(=O)c1sc(N/N=C\c2ccc(C)cc2)nc1C
Output line: F

---

List of inhibition values.
target: C-C chemokine receptor type 6 (Homo sapiens) (UniProt P51684); experiment: blockers of CCL20-driven beta-arrestin recruitment to CCR6 – cell-based, CHO-K1, luminescence, uHTS, primary screen (AID 493098); conditions: CHO-K1 CCR6 PathHunter beta-arrestin, CCL20-stimulated, at 20 µM, active compounds read high;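 further: cells stimulated with CCL20 at 14 nM final; plate controls were DMSO with CCL20 for no effect and DMSO without agonist for full effect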
Hit rate of the full screen: of about 340,000 compounds, about 1,700 (0.5%) were called active. The sample as a whole holds a higher share of actives than the screen did.
The response must be a number in % with no trailing unit.

Solved cases below.
molecule	inhibition / %
NC(=O)C1(Nc2ccc([N+](=O)[O-])cc2)CCCC1	4.74
CC1(C)CC2CC(C)(CN2c2ncnc3ccc(Br)cc23)C1 (configuration not stated)	10.7
COc1ccc2c(c1)c(=Cc1ccc(N(C)C)cc1)c1cc(-c3ccccc3)[n+](C)n12	67.2
O=C(CCl)NNc1cccc(Cl)n1	60.7
Cc1cc(Cl)c(S(=O)(=O)NCc2cccnc2)cc1OCC(N)=O	-11.7

Input line: I'd like to know its inhibition. The molecule in question is CNC(=S)Nc1ccc([N+](=O)[O-])cc1
Output line: 7.58

Input line: Try the molecule Cc1ccc2cccc(O)c2[n+]1[O-]
Output line: 54.9

Input line: Try the molecule COc1cc(CN2CC(C)CC(C)C2)cc([N+](=O)[O-])c1O (configuration not stated)
Output line: 5.99

---

molecular target: C-C chemokine receptor type 6 (Homo sapiens) (UniProt P51684); assay: blockers of CCL20-driven beta-arrestin recruitment to CCR6 – cell-based, CHO-K1, luminescence, uHTS, primary screen (AID 493098); conditions: CHO-K1 CCR6 PathHunter beta-arrestin, CCL20-stimulated, at 20 µM;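 further: cells stimulated with CCL20 at 14 nM final; plate controls were DMSO with CCL20 for no effect and DMSO without agonist for full effect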
The whole screen tested about 340,000 compounds, of which about 1,700 (0.5%) were called active.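 How the source made its calls: active means compounds whose inhibition of the agonist-driven luminescence signal at 20 µM reaches about 50% (limit read from the data); inactive means the rest.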 This is one part of a sample in which actives are shown more often than they occur.
Choose one outcome from this list and give only that: active, inactive

Below, 2 compounds whose answers are already recorded.
compound	study-system	answer-label
CC/C=C/C(=O)N1CC2(CC(c3cccc(NC(=O)CC)c3)=NO2)C[C@H]1C(N)=O (stereo not given in full)	C-C chemokine receptor type 6 (Homo sapiens) (UniProt P51684)	inactive
Cc1ccc(CS(=O)(=O)c2ncc(Cl)c(C(=O)Nc3nnc(C)s3)n2)cc1	C-C chemokine receptor type 6 (Homo sapiens) (UniProt P51684)	inactive

Input line: I'd appreciate the recorded outcome for Cc1ccc(OS(=O)Nc2cccc3nccnc23)cc1 (stereo not given) from this test.
Output line: active

Input line: Try the compound CCOc1ccc(NC(=O)COC(=O)C2CCC(=O)N2)c([N+](=O)[O-])c1 (stereo not given)
Output line: inactive

Input line: Try the compound Cc1cccc(CS(=O)(=O)c2ncc(Cl)c(C(=O)Nc3ccc(F)cc3)n2)c1
Output line: active

Input line: Try the compound CSc1nnc(NC(=O)c2nc(S(=O)(=O)Cc3ccc(C)cc3)ncc2Cl)s1
Output line: inactive

Input line: Try the compound O=C(Nc1ccc(F)cc1)c1ccc(S(=O)(=O)NCc2cccnc2)cc1
Output line: inactive

Input line: Try the compound C/C(N)=C(/C#N)C(=O)COC(=O)C1=NN(c2ccccc2)C(=O)CC1
Output line: inactive

Input line: Try the compound CCN1CCN(C(=O)CSc2ccc(C)cc2)CC1
Output line: inactive

Input line: Try the compound NS(=O)(=O)c1ccc(NC(=S)NNC(=O)c2cccs2)cc1
Output line: inactive

---

target: C-C chemokine receptor type 6 (Homo sapiens) (UniProt P51684); test: blockers of CCL20-driven beta-arrestin recruitment to CCR6 – cell-based, CHO-K1, luminescence, uHTS, primary screen (AID 493098); settings: CHO-K1 CCR6 PathHunter beta-arrestin, CCL20-stimulated, at 20 µM;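 further: cells stimulated with CCL20 at 14 nM final; plate controls were DMSO with CCL20 for no effect and DMSO without agonist for full effect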
Screen size: about 340,000 compounds; about 1,700 (0.5%) were called active.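 The calls were made as follows: active = compounds whose inhibition of the agonist-driven luminescence signal at 20 µM reaches about 50% (limit read from the data); inactive = the rest.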 The sample as a whole holds a higher share of actives than the screen did.
Choose one outcome from this list and give only that: active, inactive

Input line: I'd appreciate the recorded outcome for COc1ccc(NC(=O)c2oc3ccc(S(=O)(=O)N4CCOCC4)cc3c2C)cc1 from this test.
Output line: inactive

Input line: Try the compound c1ccc2c(c1)OC1OC2Oc2ccccc21
Output line: inactive

Input line: Try the compound COC(=O)c1ccc(NC(=O)CSc2nncc3ccc(OC)c(OC)c23)cc1
Output line: inactive
